Cited source: patent US7704995B2

Item-by-item account of pIC50
TGT: Chk1 (Homo sapiens, UniProt O14757)
Construct: purchased Upstate Biotechnology
Sequence (O14757 whole entry): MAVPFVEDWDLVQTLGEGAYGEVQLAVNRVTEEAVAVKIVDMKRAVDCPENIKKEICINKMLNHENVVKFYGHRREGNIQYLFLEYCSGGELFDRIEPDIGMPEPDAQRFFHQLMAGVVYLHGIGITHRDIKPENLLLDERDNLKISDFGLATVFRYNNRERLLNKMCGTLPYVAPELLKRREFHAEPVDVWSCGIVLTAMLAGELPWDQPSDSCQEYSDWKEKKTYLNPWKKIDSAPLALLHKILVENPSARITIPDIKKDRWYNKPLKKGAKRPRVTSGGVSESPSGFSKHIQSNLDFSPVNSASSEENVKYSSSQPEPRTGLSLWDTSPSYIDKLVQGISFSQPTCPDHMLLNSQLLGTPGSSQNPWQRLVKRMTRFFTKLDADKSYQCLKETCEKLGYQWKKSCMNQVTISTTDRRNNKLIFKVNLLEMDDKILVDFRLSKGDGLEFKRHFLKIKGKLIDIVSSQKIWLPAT
EXPERIMENT DESCRIPTION: Chk1 kinase assay: incorporation of γ-33P ATP into immobilized myelin basic protein
Assay type: biochemical
APPLIED CONDITIONS: Table 11; Chk1 only; read-out: Chk1 IC50
pIC50: −log10 of the molar value.

>>> result("CNC(=O)c1nc(-c2cccc(CN[C@H]3CCCc4ccccc43)c2)cnc1N [Example 436]")
"> 7.30"
>>> result("Nc1ncc(-c2cccc(C3=N[C@@H]4c5ccccc5C[C@@H]4O3)c2)nc1C(=O)NC1CCCNCC1 (stereo partly drawn) [Example 783]")
"6.00 to 7.30"
>>> result("Cc1nccc(-c2nc(-c3cccc(C(=O)NCc4ccccc4)c3)cnc2N)n1 [Example 656]")
"5.00 to 6.00"
>>> result("CNC(=O)c1nc(-c2cccc(CNC3CC(C)c4c(F)ccc(F)c43)c2)cnc1N (stereo not drawn) [Example 459]")
"6.00 to 7.30"
>>> result("Nc1cc(-c2n[nH]c(-c3nc(-c4cccc(CO)c4)cnc3N)n2)ccn1 [Example 798]")
"6.00 to 7.30"

Read the next record carefully.
Prompt: Could you share which pIC50 value was measured for CC(C)(C)OC(=O)NCCCNC(=O)c1nc(-c2cccc(C(=O)NCc3ccccc3)c2)cnc1N [Example 612] ?
Completion: ≤ 5.00

* * *

TGT: Chk1 (Homo sapiens, UniProt O14757)
Construct: purchased Upstate Biotechnology
EXPERIMENT DESCRIPTION: Chk1 kinase assay: incorporation of γ-33P ATP into immobilized myelin basic protein
Assay type: biochemical
APPLIED CONDITIONS: Table 11; Chk1 only; read-out: Chk1 IC50
pIC50: −log10 of the molar value.
READOUT KIND: pIC50

Some solved entries appear below for comparison.
>>> result("CNC(=O)c1nc(-c2cccc(CNc3cccc4ccccc34)c2)cnc1N")
"6.00 to 7.30"
>>> result("CNC(=O)c1nc(-c2cccc(CN[C@@H]3CCc4cc(Br)ccc4C3)c2)cnc1N")
"6.00 to 7.30"
>>> result("Nc1ncc(-c2cccc(CN[C@H]3CCc4ccccc43)c2)nc1-c1nc(-c2ccccc2)n[nH]1")
"> 7.30"
>>> result("COC[C@H]1CCCN1NC(=N)c1nc(-c2cccc(C(=O)NCc3ccccc3)c2)cnc1N")
"≤ 5.00"

Prompt: Could you share which pIC50 value was measured for CCNc1ncc(-c2cccc(C(=O)N[C@H]3CCc4ccccc43)c2)nc1C(=O)N[C@H]1CCN(CC)C1 ?
Completion: ≤ 5.00

Prompt: Could you share which pIC50 value was measured for C/C(=N\n1nnc2ccccc21)c1nc(-c2cccc(C(=O)NCc3ccccc3)c2)cnc1N ?
Completion: ≤ 5.00

Prompt: Could you share which pIC50 value was measured for CCOC(=O)C1CCN(Cc2nc(-c3cccc(C(=O)NCc4ccccc4)c3)cnc2N)CC1 ?
Completion: ≤ 5.00

* * *

TGT: Chk1 (Homo sapiens, UniProt O14757)
Construct: purchased Upstate Biotechnology
EXPERIMENT DESCRIPTION: Chk1 kinase assay: incorporation of γ-33P ATP into immobilized myelin basic protein
Assay type: biochemical
APPLIED CONDITIONS: Table 11; Chk1 only; read-out: Chk1 IC50
pIC50: −log10 of the molar value.
Item-by-item account of pIC50

Some solved entries appear below for comparison.
>>> result("Nc1ncc(-c2cccc(C(=O)NCc3ccccn3)c2)nc1C(=O)N[C@H]1CCNC1")
"6.00 to 7.30"
>>> result("Nc1ncc(-c2cccc(C(=O)NCc3ccccc3)c2)nc1C(=O)N1CCC(N)CC1")
"≤ 5.00"

Prompt: Could you share which pIC50 value was measured for CNC(=O)c1nc(-c2cccc(CN[C@H]3CCC[C@@H]3OCc3ccccc3)c2)cnc1N ?
Completion: 6.00 to 7.30

Prompt: Could you share which pIC50 value was measured for CNC(=O)c1nc(-c2cccc(CNCc3cnc(C)cn3)c2)cnc1N ?
Completion: 6.00 to 7.30

Prompt: Could you share which pIC50 value was measured for CNC(=O)c1nc(-c2cccc(CNC3CCc4cc(-c5ccsc5)ccc43)c2)cnc1N (centres unmarked) ?
Completion: > 7.30

Prompt: Could you share which pIC50 value was measured for Nc1ncc(-c2cccc(C(=O)N[C@H]3CCc4ccccc43)c2)nc1C(=O)NC1CCCNC1 (some centres unmarked) ?
Completion: > 7.30

Prompt: Could you share which pIC50 value was measured for Nc1ncc(-c2cccc(CN[C@H]3CCc4ccccc43)c2)nc1C(=O)c1ccccc1 ?
Completion: 6.00 to 7.30

Prompt: Could you share which pIC50 value was measured for Nc1ncc(-c2cccc(C(=O)NCc3ccccc3)c2)nc1-c1nc(-c2ccccc2)n(-c2ccccn2)n1 ?
Completion: 5.00 to 6.00

* * *

Item-by-item account of IC50
TGT: Chk1 (Homo sapiens)
Construct: purchased Upstate Biotechnology
EXPERIMENT DESCRIPTION: Chk1 kinase assay: incorporation of γ-33P ATP into immobilized myelin basic protein
Format: biochemical
APPLIED CONDITIONS: Table 11, Chk1 only; class symbols A-D; read-out: Chk1 IC50

>>> result("Nc1ncc(-c2cccc(C(=O)NCc3cc(F)cc(Br)c3)c2)nc1C(=O)N[C@H]1CCCNC1 [Example 1032]")
"< 50 nM"

Read the next record carefully.
Prompt: What measured IC50 is associated with Nc1ncc(-c2cccc(CNS(=O)(=O)c3cccs3)c2)nc1C(=O)N[C@H]1CCCNC1 [Example 953] on Chk1 (Homo sapiens)?
Completion: < 50 nM

* * *

Item-by-item account of IC50
TGT: Chk1 (Homo sapiens)
Construct: purchased Upstate Biotechnology
EXPERIMENT DESCRIPTION: Chk1 kinase assay: incorporation of γ-33P ATP into immobilized myelin basic protein
Type: biochemical
APPLIED CONDITIONS: read-out: Chk1 IC50

Some solved entries appear below for comparison.
>>> result("CNC(=O)c1nc(-c2cccc(CSCc3ccccc3)c2)cnc1N")
"50 to 1000 nM"
>>> result("CNC(=O)c1nc(-c2cccc(C(=O)NCc3cccc(C)c3)c2)cnc1N")
"50 to 1000 nM"
>>> result("CNC(=O)c1nc(-c2cccc(CS(=O)(=O)Cc3ccccc3)c2)cnc1N")
"50 to 1000 nM"

Prompt: What measured IC50 is associated with CNC(=O)c1nc(-c2cccc(CNC(=O)c3ccc4ccccc4c3)c2)cnc1N on Chk1 (Homo sapiens)?
Completion: 50 to 1000 nM

Prompt: What measured IC50 is associated with CNC(=O)c1nc(-c2ccc(C(C)=O)cc2)cnc1N on Chk1 (Homo sapiens)?
Completion: 1000 to 10000 nM

Prompt: What measured IC50 is associated with CNC(=O)c1nc(-c2cccc(C(=O)Nc3ccc(OC)cc3)c2)cnc1N on Chk1 (Homo sapiens)?
Completion: 50 to 1000 nM

Prompt: What measured IC50 is associated with CNC(=O)c1nc(-c2cccc(C(=O)N[C@@H]3CCNC3)c2)cnc1N on Chk1 (Homo sapiens)?
Completion: 1000 to 10000 nM

Prompt: What measured IC50 is associated with CNC(=O)c1nc(-c2cccc(C(=O)NCc3cc(OC)ccc3OC)c2)cnc1N on Chk1 (Homo sapiens)?
Completion: 50 to 1000 nM

* * *

TGT: Chk1 (Homo sapiens, UniProt O14757)
Construct: purchased Upstate Biotechnology
EXPERIMENT DESCRIPTION: Chk1 kinase assay: incorporation of γ-33P ATP into immobilized myelin basic protein
Format: biochemical
APPLIED CONDITIONS: Table 11; Chk1 only; read-out: Chk1 IC50
pIC50: −log10 of the molar value.
READOUT KIND: pIC50

Some solved entries appear below for comparison.
>>> result("CN(C)c1ccc(C(=O)c2nc(-c3cccc(C(=O)NCc4ccccc4)c3)cnc2N)cc1")
"≤ 5.00"
>>> result("Nc1ncc(-c2cccc(CN[C@H]3CCc4ccccc43)c2)nc1C(=O)NCCc1ccccc1")
"5.00 to 6.00"
>>> result("COC[C@H]1CCCN1/N=C(\\C)c1nc(-c2cccc(C(=O)NCc3ccccc3)c2)cnc1N")
"6.00 to 7.30"
>>> result("Nc1ncc(-c2cccc(C(=O)N[C@@H]3c4ccccc4C[C@@H]3O)c2)nc1C(=O)NC1CCCNC1 (stereo partly drawn)")
"> 7.30"

Read the next record carefully.
Prompt: Could you share which pIC50 value was measured for CNCCNC(=O)c1nc(-c2cccc(CN[C@H]3CCc4ccccc43)c2)cnc1N ?
Completion: > 7.30

* * *

Item-by-item account of IC50
TGT: Chk1 (Homo sapiens, UniProt O14757)
Construct: purchased Upstate Biotechnology
EXPERIMENT DESCRIPTION: Chk1 kinase assay: incorporation of γ-33P ATP into immobilized myelin basic protein
Type: biochemical
APPLIED CONDITIONS: Table 11; Chk1 only; read-out: Chk1 IC50

Some solved entries appear below for comparison.
>>> result("Nc1ncc(-c2cccc(C(=O)N[C@H]3c4ccccc4C[C@H]3O)c2)nc1C(=O)N[C@H]1CCNC1")
"0.05 to 1 µM"
>>> result("Nc1ncc(-c2cccc(CO)c2)nc1-c1nc(-c2cccnc2)n[nH]1")
"0.05 to 1 µM"
>>> result("Nc1ncc(-c2cccc(C(=O)NCc3ccccc3)c2)nc1C(=O)NCCNC(=O)c1ccco1")
"≥ 10 µM"
>>> result("CN1CCCC(c2n[nH]c(-c3nc(-c4cccc(CN[C@H]5CCc6ccccc65)c4)cnc3N)n2)C1 (stereo partly drawn)")
"0.05 to 1 µM"
>>> result("Nc1ncc(-c2cccc(C(=O)NCc3ccccc3)c2)nc1C(=O)N[C@H](Cc1ccc(O)cc1)C(=O)O")
"≥ 10 µM"

Prompt: Could you share which IC50 value was measured for CNC(=O)c1nc(-c2cccc(CNC3CCc4ccc(Cl)cc43)c2)cnc1N (stereo not drawn) ?
Completion: 0.05 to 1 µM
